assay: Human Plasma Protein Binding (Test B); type: in vitro ADME; details: fraction unbound (fu)
Please mark true if the recorded Test B Human Plasma Protein Binding (% free) is equal to or greater than 2 % free, and false if it falls below.

Known results for compounds:
compound | category
COc1cc(C#N)c(O[C@H]2CC[C@@](C)(C(=O)O)CC2)cc1C(=O)N[C@@H]1[C@H]2CC[C@H](C2)[C@@H]1C(=O)NCC1(OC)CCC1 | true
COc1cc(F)c(O[C@H]2CC[C@@](C)(C(=O)O)CC2)cc1C(=O)N[C@@H]1[C@H](O)CC[C@@H]1C(=O)Nc1cccc(S(=O)(=O)C(F)(F)F)c1 (racemic) | true
COc1cc(C#N)c(O[C@H]2CC[C@@](C)(C(=O)O)CC2)cc1C(=O)N[C@@H]1[C@@H]2CC[C@@H](C2)[C@@H]1C(=O)NCC(C)(C)C | true

Hi team, for COc1cc(C#N)c(O[C@H]2C[C@]3(C2)C[C@H](C(=O)O)C3)cc1C(=O)N[C@@H]1[C@H]2CC[C@H](C2)[C@@H]1C(=O)NCC1(C)CCC1 (single isomer, unassigned) , is the recorded Test B Human Plasma Protein Binding (% free) at or above 2 % free?
true

Hi team, for COc1cc(F)c(O[C@H]2CC[C@@](C)(C(=O)O)CC2)cc1C(=O)N[C@@H]1COCC[C@@H]1C(=O)Nc1cccc(S(=O)(=O)C(F)(F)F)c1 (relative stereo) , is the recorded Test B Human Plasma Protein Binding (% free) at or above 2 % free?
true

Hi team, for COc1cc(F)c(-c2cnn(CC(=O)O)c2)cc1C(=O)N[C@H]1[C@@H](C(=O)Nc2cccc(S(=O)(=O)C(F)(F)F)c2)[C@@H]2C=C[C@H]1C2 , is the recorded Test B Human Plasma Protein Binding (% free) at or above 2 % free?
false

Hi team, for CCC(CC)[C@H](C)NC(=O)[C@H]1[C@@H]2CC[C@@H](C2)[C@H]1NC(=O)c1cc(O[C@H]2CC[C@@](C)(C(=O)O)CC2)c(F)cc1OC (single isomer, unassigned) , is the recorded Test B Human Plasma Protein Binding (% free) at or above 2 % free?
true

Hi team, for COc1c(Cl)cc(O[C@H]2CC[C@@](C)(C(=O)O)CC2)cc1C(=O)N[C@@H]1[C@H]2CC[C@H](C2)[C@@H]1C(=O)NCC1(C)CCC1 , is the recorded Test B Human Plasma Protein Binding (% free) at or above 2 % free?
false

Hi team, for COc1cc(F)c(-c2cccc(C(=O)O)c2)cc1C(=O)N[C@H]1[C@@H](C(=O)Nc2ccc(F)c(S(=O)(=O)C(F)(F)F)c2)[C@@H]2C=C[C@H]1C2 (racemic) , is the recorded Test B Human Plasma Protein Binding (% free) at or above 2 % free?
false

Hi team, for COc1cc(C#N)c(O[C@H]2CC[C@@](C)(C(=O)O)CC2)cc1C(=O)N[C@@H]1[C@H]2CC[C@H](C2)[C@@H]1C(=O)NC[C@H](F)CO , is the recorded Test B Human Plasma Protein Binding (% free) at or above 2 % free?
true
